Data origin: patent US20100196385A1

target: full length cynomolgus monkey DLL4 (cynomolgus monkey)
protocol notes: FMAT, hybridoma supernatant, 293T cells with cynomolgus DLL4
Quick reference for Count among some binders
Answer with a bare number; do not write a unit.

Some binders with known Count results, for comparison:
9G8 (antibody, IgG4, V domains shown) VH: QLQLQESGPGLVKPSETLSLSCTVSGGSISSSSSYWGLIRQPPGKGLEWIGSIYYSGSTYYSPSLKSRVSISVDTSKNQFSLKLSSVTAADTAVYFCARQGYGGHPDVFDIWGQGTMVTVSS VL: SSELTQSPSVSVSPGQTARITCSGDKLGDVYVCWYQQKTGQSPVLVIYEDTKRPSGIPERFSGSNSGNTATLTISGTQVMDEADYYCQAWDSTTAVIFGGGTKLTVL; 120
1D4 (antibody, IgG4, V domains shown) VH: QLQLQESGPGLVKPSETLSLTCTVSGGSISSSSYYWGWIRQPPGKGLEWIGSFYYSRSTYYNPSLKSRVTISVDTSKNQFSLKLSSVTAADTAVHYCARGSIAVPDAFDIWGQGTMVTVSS VL: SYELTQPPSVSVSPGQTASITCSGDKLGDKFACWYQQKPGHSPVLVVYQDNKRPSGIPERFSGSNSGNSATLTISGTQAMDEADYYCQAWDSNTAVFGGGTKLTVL; 103
3A7 (antibody, IgG4, V domains shown) VH: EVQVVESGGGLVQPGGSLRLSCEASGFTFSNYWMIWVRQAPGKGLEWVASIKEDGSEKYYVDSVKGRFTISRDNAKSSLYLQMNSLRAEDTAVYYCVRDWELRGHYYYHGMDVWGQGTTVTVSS VL: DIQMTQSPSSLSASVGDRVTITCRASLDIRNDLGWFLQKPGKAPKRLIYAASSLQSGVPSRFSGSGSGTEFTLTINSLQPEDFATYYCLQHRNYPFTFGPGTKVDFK; 121

Name the reported Count value associated with the binder 4B4 (antibody, IgG4, V domains shown) VH: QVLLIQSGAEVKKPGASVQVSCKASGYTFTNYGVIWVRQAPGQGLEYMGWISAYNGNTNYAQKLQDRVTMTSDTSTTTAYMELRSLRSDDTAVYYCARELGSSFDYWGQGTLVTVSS VL: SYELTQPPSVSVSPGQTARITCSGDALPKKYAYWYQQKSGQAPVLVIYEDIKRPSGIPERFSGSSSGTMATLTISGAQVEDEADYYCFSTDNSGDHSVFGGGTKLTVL
117

Name the reported Count value associated with the binder 17F3 (antibody, IgG2, V domains shown) VH: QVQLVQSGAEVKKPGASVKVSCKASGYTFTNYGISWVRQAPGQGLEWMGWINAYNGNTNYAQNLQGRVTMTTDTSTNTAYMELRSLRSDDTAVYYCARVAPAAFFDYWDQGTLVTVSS VL: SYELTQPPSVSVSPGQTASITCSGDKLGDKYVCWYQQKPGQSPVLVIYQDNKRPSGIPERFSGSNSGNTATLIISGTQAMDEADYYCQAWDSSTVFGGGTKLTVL
120
